System: HT-29
Experiment: cells
Settings: Homo sapiens, HT-29, 48 h, read-out: IC50 ± S.D.; 48 hours, HT-29
Measurement name: IC50

Requested read-out: IC50. Entry: CCN(CC)CCNC(=O)c1c(C)[nH]c(/C=C2\C(=O)Nc3ccc(F)cc32)c1C [sunitinib, Sunitinib malate, reference compound]
1430 nM

* * *

System: PC3
Assay: cells
Conditions: read-out: IC50 ± S.D.; 48 hours, PC3; cell proliferation inhibition, MTT, 48-h incubation, 1.5 × 10^3 cells/well, triplicate, mean ± SD
pIC50: −log10 of the molar value. Ends that are not written are not given here.
Measurement name: pIC50

Requested read-out: pIC50. Entry: YHLNQPF [PEDF, reference compound]
< 4.00

* * *

Tested on: HUVEC
Assay: cells
Details: Homo sapiens, HUVEC, 48 h, read-out: IC50 ± S.D.; 48 hours, HUVEC
Measurement name: IC50 (µM)
Give the value in µM but do not write µM after it.

API: value(readout= IC50, system= HUVEC, query= CCN(CC)CCNC(=O)c1c(C)[nH]c(/C=C2\C(=O)Nc3ccc(F)cc32)c1C [sunitinib, Sunitinib malate, reference compound] )
19.1

* * *

Test system: HT-29
Test: cells
Settings: read-out: IC50 ± S.D.; 48 hours, HT-29; cell proliferation inhibition, MTT, 48-h incubation, 1.5 × 10^3 cells/well, triplicate, mean ± SD
Procedure: HUVECs (human umbilical vein endothelial cells) were cultured in EGM™-2 BulletKit™ supplemented with SingleQuots™ (supplements: growth factors, cytokines, antibiotics; Lonza) and 10% FBS (catalog no. FFBS-500; Scientifix). […] Cell cytotoxicity and proliferation assays were performed using similar methods to those described by Chan et al.[45]. […] Cell numbers were recorded at 600 nm. […]
Ends that are not written are not given here.
Measurement name: IC50

API: value(readout= IC50, system= HT-29, query= YHLNQPF [PEDF, reference compound] )
> 100 µM

* * *

Test system: MCF-7
Assay: cells
Conditions: read-out: IC50 ± S.D.; 48 hours, MCF-7; cell proliferation inhibition, MTT, 48-h incubation, 1.5 × 10^3 cells/well, triplicate, mean ± SD
Bridge positions count the residues as written; N and C are the ends. Square brackets hold non-standard residues; d marks the D form. Peptide text beside a SMILES is read from it.
Measurement name: IC50 (µM)
Give the value in µM but do not write µM after it.

| Compound | Tested on | Measurement name | Readout number |
| --- | --- | --- | --- |
| CC[C@H](C)[C@@H]1NC(=O)[C@@H]2CCCN2C(=O)[C@@H]2CCCN2C(=O)[C@H]([C@@H](C)CC)NC(=O)[C@H](CO)NC(=O)[C@H](CCCCN)NC(=O)[C@H]([C@@H](C)O)NC(=O)[C@@H]2CSSC[C@H](NC1=O)C(=O)N[C@@H](CCCNC(=N)N)C(=O)N[C@@H](Cc1ccccc1)C(=O)N[C@H](Cc1c[nH]c3ccccc13)C(=O)N[C@@H](CCCCN)C(=O)N[C@@H]([C@@H](C)O)C(=O)N[C@@H](Cc1c[nH]c3ccccc13)C(=O)N2 [SFTI-SST-02] (cyclo(CRF[dW]KTWCTKSIPPI); disulfide 1-8) | MCF-7 | IC50 | 55.1 |
| CC[C@H](C)[C@@H]1NC(=O)[C@@H]2CCCN2C(=O)[C@@H]2CCCN2C(=O)[C@H]([C@@H](C)CC)NC(=O)[C@H](CO)NC(=O)[C@H](CCCCN)NC(=O)[C@H]([C@@H](C)O)NC(=O)[C@@H]2CSSC[C@H](NC1=O)C(=O)N[C@@H](CCCNC(=N)N)C(=O)N[C@@H](CCCNC(=N)N)C(=O)N[C@@H](CCCCN)C(=O)N[C@@H](CCCNC(=N)N)C(=O)N[C@@H](CCCNC(=N)N)C(=O)N[C@@H](CCCNC(=N)N)C(=O)N2 [SFTI-polyR-L2] (cyclo(CRRKRRRCTKSIPPI); disulfide 1-8) | MCF-7 | IC50 | 41.8 |

Requested read-out: IC50. Entry: CC[C@H](C)[C@@H]1NC(=O)[C@H](CCCNC(=N)N)NC(=O)[C@H](CCCNC(=N)N)NC(=O)[C@H](CCCNC(=N)N)NC(=O)[C@H](CCCCN)NC(=O)[C@H](CCCNC(=N)N)NC(=O)[C@H](CCCNC(=N)N)NC(=O)[C@@H]2CSSC[C@H](NC1=O)C(=O)N[C@@H](Cc1ccccc1)C(=O)N1CCC[C@H]1C(=O)N[C@@H](CC(=O)O)C(=O)NCC(=O)N[C@@H](CCCNC(=N)N)C(=O)N2 [SFTI-polyR-L1] (cyclo(CFPDGRCRRKRRRI); disulfide 1-7)
28.7

Requested read-out: IC50. Entry: CC[C@H](C)[C@@H]1NC(=O)[C@@H]2CCCN2C(=O)[C@@H]2CCCN2C(=O)[C@H]([C@@H](C)CC)NC(=O)[C@H](CO)NC(=O)[C@H](CCCCN)NC(=O)[C@H]([C@@H](C)O)NC(=O)[C@@H]2CSSC[C@H](NC1=O)C(=O)N[C@@H](Cc1ccc(O)cc1)C(=O)N[C@H](Cc1c[nH]c3ccccc13)C(=O)N[C@@H](CCCCN)C(=O)N[C@@H](C(C)C)C(=O)N2 [SFTI-SST-01] (cyclo(CTKSIPPICY[dW]KV); disulfide 1-9)
46.1
